From: patent US20250304965A1

# Test system: A2780 cells
# experiment_description: MTT cytotoxicity analysis, ovarian cancer cells A2780
# Type: cell-based, human
# setup_conditions: A2780 ovarian cancer cells, 48 hours of treatment, Lipofectamine RNAiMAX transfection reagent, MTT; read-out: Median inhibitory concentration IC50
[Ψ] = pseudouridine
Hi there, I'd appreciate the recorded IC50 for every entry that follows.
Field: numeric (nM). Do not append units.

Exercise: So what does the record say about IC50 for GL2 mimic: double-stranded RNA from Ganoderma lucidum tRNA-Ile(GAU); antisense SEQ ID NO: 3, sense SEQ ID NO: 12, length 41 (nucleic acid, RNA, backbone not given here) antisense: AUAAGGAAUCUGUAGAAGUUCGAUUCUUCUUGGGCUUACCA sense: UGGUAAGCCCAAGAAGAAUCGAACUUCUACAGAUUCCUUAU ?
Key: 57.2

Exercise: Entry GL11 mimic: chemically modified GL2 double-stranded RNA (5-methyluridine); antisense SEQ ID NO: 21, sense SEQ ID NO: 25, length 41 (nucleic acid, RNA, backbone not given here; further chemistry not fully specified) antisense: AUAAGGAAUCUGUAGAAGTUCGAUUCUUCUUGGGCUUACCA sense: UGGUAAGCCCAAGAAGAAUCGAACUUCUACAGAUUCCUUAU has what IC50?
Key: 17.2

Exercise: Consider the molecule shown here: GL10 mimic: chemically modified GL2 double-stranded RNA (5-methyluridine and pseudouridine); antisense SEQ ID NO: 20, sense SEQ ID NO: 24, length 41 (nucleic acid, antisense: RNA, [Ψ] at 20, backbone not given here; sense: RNA, backbone not given here; further chemistry not fully specified) antisense: AUAAGGAAUCUGUAGAAGTUCGAUUCUUCUUGGGCUUACCA sense: UGGUAAGCCCAAGAAGAAUCGAACUUCUACAGAUUCCUUAU What is its recorded IC50?
Key: 51.9

Exercise: What value of measured IC50 is listed for GL12 mimic: chemically modified GL2 double-stranded RNA (pseudouridine); antisense SEQ ID NO: 22, sense SEQ ID NO: 26, length 41 (nucleic acid, antisense: RNA, [Ψ] at 20, backbone not given here; sense: RNA, backbone not given here) antisense: AUAAGGAAUCUGUAGAAGUUCGAUUCUUCUUGGGCUUACCA sense: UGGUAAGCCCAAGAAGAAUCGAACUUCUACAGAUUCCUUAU ?
Key: 43.7

Exercise: Can you share its IC50? I mean this molecule: GL1 mimic: double-stranded RNA from Ganoderma lucidum tRNA-Ile(GAU); antisense SEQ ID NO: 2, sense SEQ ID NO: 11, length 33 (nucleic acid, RNA, backbone not given here) antisense: AAGCCUAUAAUUUAAAGGUAGAAUAAUUUCUUG sense: CAAGAAAUUAUUCUACCUUUAAAUUAUAGGCUU
Key: 225
